Every entry's value here was drawn from paper PMC7351026.

- Assay notes: Individual serum elimination rate and half-life (linear regression per employee)
- Cond: human, serum, oral, HL (half-life), individual estimate, subject 14, 4 samples
Value type: half-life
Don't forget the unit after the value.

Enquiry: // fetch half-life given entry `O=C(O)C(F)(F)C(F)(F)C(F)(F)C(F)(F)C(F)(F)C(F)(F)C(F)(F)F`
Return: 584 days

Enquiry: // fetch half-life given entry `O=C(O)C(F)(F)C(F)(F)C(F)(F)C(F)(F)C(F)(F)C(F)(F)F`
Return: 36.5 days

Enquiry: // fetch half-life given entry `O=S(=O)(O)C(F)(F)C(F)(F)C(F)(F)C(F)(F)C(F)(F)C(F)(F)F`
Return: 438 days
